# pIC50 listing for each entry below
test system: Ln-Cap Prostate Carcinoma; conditions: lncap cells
Give only the number. pIC50 is defined as minus log10 of concentration in molar units.

Solved cases (3 shown):
| Compound | pIC50 |
| --- | --- |
| CC(=O)O[C@H]1C(=O)[C@@]2(C)[C@H]([C@H](OC(=O)c3ccccc3)[C@]3(O)C[C@H](OC(=O)[C@H](OC(=O)OCCC(O)CO)[C@@H](NC(=O)c4ccccc4)c4ccccc4)C(C)=C1C3(C)C)[C@]1(OC(C)=O)CO[C@@H]1C[C@@H]2O (stereo partly shown) | 7.71 |
| CC(=O)O[C@H]1C(=O)[C@]2(C)[C@@H](OC(=O)OCC(O)CO)C[C@H]3OC[C@@]3(OC(C)=O)[C@H]2[C@H](OC(=O)c2ccccc2)[C@]2(O)C[C@H](OC(=O)[C@H](OC(=O)OCC(O)CO)[C@@H](NC(=O)c3ccccc3)c3ccccc3)C(C)=C1C2(C)C (stereo partly shown) | 7.57 |
| CC(=O)O[C@H]1C(=O)[C@@]2(C)[C@H]([C@H](OC(=O)c3ccccc3)[C@]3(O)C[C@H](OC(=O)[C@H](O)[C@@H](NC(=O)c4ccccc4)c4ccccc4)C(C)=C1C3(C)C)[C@]1(OC(C)=O)CO[C@@H]1C[C@@H]2O [Taxol, paclitaxel, reference compound] | 8.82 |

Next item in the queue.
Q. Write down the reported pIC50 (system: Ln-Cap Prostate Carcinoma) of CC(=O)O[C@H]1C(=O)[C@]2(C)[C@@H](OC(=O)OCC(O)CO)C[C@H]3OC[C@@]3(OC(C)=O)[C@H]2[C@H](OC(=O)c2ccccc2)[C@]2(O)C[C@H](OC(=O)[C@H](O)[C@@H](NC(=O)c3ccccc3)c3ccccc3)C(C)=C1C2(C)C (stereo partly shown)
A. 7.69

###

tested on: DU-145 Prostate Carcinoma; conditions: du-145 cells
# IC50 listing for each entry below
Note: unit nM is implicit; provide only the numeric part.

Q. Identify the reported IC50 for the following entry. CC(=O)O[C@H]1C(=O)[C@]2(C)[C@@H](OC(=O)OCC(O)CO)C[C@H]3OC[C@@]3(OC(C)=O)[C@H]2[C@H](OC(=O)c2ccccc2)[C@]2(O)C[C@H](OC(=O)[C@H](OC(=O)OCC(O)CO)[C@@H](NC(=O)c3ccccc3)c3ccccc3)C(C)=C1C2(C)C (stereo partly shown)
A. 91.4

Q. Identify the reported IC50 for the following entry. CC(=O)O[C@H]1C(=O)[C@@]2(C)[C@H]([C@H](OC(=O)c3ccccc3)[C@]3(O)C[C@H](OC(=O)[C@H](O)[C@@H](NC(=O)c4ccccc4)c4ccccc4)C(C)=C1C3(C)C)[C@]1(OC(C)=O)CO[C@@H]1C[C@@H]2O [Taxol, paclitaxel, reference compound]
A. 2.12

Q. Identify the reported IC50 for the following entry. CC(=O)O[C@H]1C(=O)[C@@]2(C)[C@H]([C@H](OC(=O)c3ccccc3)[C@]3(O)C[C@H](OC(=O)[C@H](OC(=O)OCCC(O)CO)[C@@H](NC(=O)c4ccccc4)c4ccccc4)C(C)=C1C3(C)C)[C@]1(OC(C)=O)CO[C@@H]1C[C@@H]2O (stereo partly shown)
A. 1.4

Q. Identify the reported IC50 for the following entry. CC(=O)O[C@H]1C(=O)[C@]2(C)[C@@H](OC(=O)OCC(O)CO)C[C@H]3OC[C@@]3(OC(C)=O)[C@H]2[C@H](OC(=O)c2ccccc2)[C@]2(O)C[C@H](OC(=O)[C@H](O)[C@@H](NC(=O)c3ccccc3)c3ccccc3)C(C)=C1C2(C)C (stereo partly shown)
A. 20.5

###

tested on: MCF-7 Breast Carcinoma; details: mcf-7 cells
# pIC50 listing for each entry below
Give only the number. pIC50 is defined as minus log10 of concentration in molar units.

Q. Identify the reported pIC50 for the following entry. CC(=O)O[C@H]1C(=O)[C@]2(C)[C@@H](OC(=O)OCC(O)CO)C[C@H]3OC[C@@]3(OC(C)=O)[C@H]2[C@H](OC(=O)c2ccccc2)[C@]2(O)C[C@H](OC(=O)[C@H](O)[C@@H](NC(=O)c3ccccc3)c3ccccc3)C(C)=C1C2(C)C (stereo partly shown)
A. 6.09

Q. Identify the reported pIC50 for the following entry. CC(=O)O[C@H]1C(=O)[C@@]2(C)[C@H]([C@H](OC(=O)c3ccccc3)[C@]3(O)C[C@H](OC(=O)[C@H](OC(=O)OCCC(O)CO)[C@@H](NC(=O)c4ccccc4)c4ccccc4)C(C)=C1C3(C)C)[C@]1(OC(C)=O)CO[C@@H]1C[C@@H]2O (stereo partly shown)
A. 8.06

Q. Identify the reported pIC50 for the following entry. CC(=O)O[C@H]1C(=O)[C@@]2(C)[C@H]([C@H](OC(=O)c3ccccc3)[C@]3(O)C[C@H](OC(=O)[C@H](O)[C@@H](NC(=O)c4ccccc4)c4ccccc4)C(C)=C1C3(C)C)[C@]1(OC(C)=O)CO[C@@H]1C[C@@H]2O [Taxol, paclitaxel, reference compound]
A. 8.30

Q. Identify the reported pIC50 for the following entry. CC(=O)O[C@H]1C(=O)[C@]2(C)[C@@H](OC(=O)OCC(O)CO)C[C@H]3OC[C@@]3(OC(C)=O)[C@H]2[C@H](OC(=O)c2ccccc2)[C@]2(O)C[C@H](OC(=O)[C@H](OC(=O)OCC(O)CO)[C@@H](NC(=O)c3ccccc3)c3ccccc3)C(C)=C1C2(C)C (stereo partly shown)
A. 6.47

###

tested on: PC-3 Prostate Carcinoma; settings: pc-3 cells
Measurement label: IC50 (nM)
Note: unit nM is implicit; provide only the numeric part.

Solved cases (2 shown):
| Compound | Unit name | Endpoint value |
| --- | --- | --- |
| CC(=O)O[C@H]1C(=O)[C@]2(C)[C@@H](OC(=O)OCC(O)CO)C[C@H]3OC[C@@]3(OC(C)=O)[C@H]2[C@H](OC(=O)c2ccccc2)[C@]2(O)C[C@H](OC(=O)[C@H](OC(=O)OCC(O)CO)[C@@H](NC(=O)c3ccccc3)c3ccccc3)C(C)=C1C2(C)C (stereo partly drawn) [BP-177] | nM | 57.3 |
| CC(=O)O[C@H]1C(=O)[C@]2(C)[C@@H](OC(=O)OCC(O)CO)C[C@H]3OC[C@@]3(OC(C)=O)[C@H]2[C@H](OC(=O)c2ccccc2)[C@]2(O)C[C@H](OC(=O)[C@H](O)[C@@H](NC(=O)c3ccccc3)c3ccccc3)C(C)=C1C2(C)C (stereo partly drawn) [BP-179] | nM | 3.24 |

Next item in the queue.
Q. Identify the reported IC50 for the following entry. CC(=O)O[C@H]1C(=O)[C@@]2(C)[C@H]([C@H](OC(=O)c3ccccc3)[C@]3(O)C[C@H](OC(=O)[C@H](OC(=O)OCCC(O)CO)[C@@H](NC(=O)c4ccccc4)c4ccccc4)C(C)=C1C3(C)C)[C@]1(OC(C)=O)CO[C@@H]1C[C@@H]2O (stereo partly drawn) [BP-193]
A. 1550

###

test system: Ovcar-3 Ovarian Carcinoma; settings: ovcar-3 cells
Measurement label: pIC50
Give only the number. pIC50 is defined as minus log10 of concentration in molar units.

| Compound | pIC50 |
| --- | --- |
| CC(=O)O[C@H]1C(=O)[C@@]2(C)[C@H]([C@H](OC(=O)c3ccccc3)[C@]3(O)C[C@H](OC(=O)[C@H](O)[C@@H](NC(=O)c4ccccc4)c4ccccc4)C(C)=C1C3(C)C)[C@]1(OC(C)=O)CO[C@@H]1C[C@@H]2O [Taxol, paclitaxel, reference compound] | 8.65 |
| CC(=O)O[C@H]1C(=O)[C@]2(C)[C@@H](OC(=O)OCC(O)CO)C[C@H]3OC[C@@]3(OC(C)=O)[C@H]2[C@H](OC(=O)c2ccccc2)[C@]2(O)C[C@H](OC(=O)[C@H](O)[C@@H](NC(=O)c3ccccc3)c3ccccc3)C(C)=C1C2(C)C (stereo partly shown) | 7.30 |
| CC(=O)O[C@H]1C(=O)[C@@]2(C)[C@H]([C@H](OC(=O)c3ccccc3)[C@]3(O)C[C@H](OC(=O)[C@H](OC(=O)OCCC(O)CO)[C@@H](NC(=O)c4ccccc4)c4ccccc4)C(C)=C1C3(C)C)[C@]1(OC(C)=O)CO[C@@H]1C[C@@H]2O (stereo partly shown) | 7.26 |

Q. Write down the reported pIC50 (system: Ovcar-3 Ovarian Carcinoma) of CC(=O)O[C@H]1C(=O)[C@]2(C)[C@@H](OC(=O)OCC(O)CO)C[C@H]3OC[C@@]3(OC(C)=O)[C@H]2[C@H](OC(=O)c2ccccc2)[C@]2(O)C[C@H](OC(=O)[C@H](OC(=O)OCC(O)CO)[C@@H](NC(=O)c3ccccc3)c3ccccc3)C(C)=C1C2(C)C (stereo partly shown)
A. 7.30
